- Test system: OVTOKO (Ovarian Carcinoma);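 further: after 72 h of two-drug dosing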
- assay_method_text: Bliss excess, mean over the matrix (fraction); higher = more synergy
test_readout: Bliss excess
Answers are plain numbers.

Reference set, count: 2
[
  {
    "molecule": "Cc1c2c(nn1C)CSCc1cc(n(C)n1)CSc1cc(c3ccccc3c1)OCCCc1c(C(=O)O)n(C)c3c-2c(Cl)ccc13 [AZD5991] + CC1(C)CCC(CN2CCN(c3ccc(C(=O)NS(=O)(=O)c4ccc(NCC5CCOCC5)c([N+](=O)[O-])c4)c(Oc4cnc5[nH]ccc5c4)c3)CC2)=C(c2ccc(Cl)cc2)C1 [Venetoclax] (first compound max 1 µM, 7x7, partner max 1 µM)",
    "assay_value": -0.0027
  },
  {
    "molecule": "COc1nnc2ccc(N3CCC(c4ccc(OCCN5CCN(C)C(=O)[C@H]5C)cc4)CC3)nn12 [AZD5153] + CCN(CCO)CCCOc1ccc2c(Nc3cc(CC(=O)Nc4cccc(F)c4)[nH]n3)ncnc2c1 [AZD2811] (first compound max 1 µM, 7x7, partner max 1 µM)",
    "assay_value": -0.0423
  }
]

The record that follows has no Bliss excess shown yet.
Input COc1cccc(OCCCN)c1-c1cc(Nc2cnc(C#N)cn2)n[nH]1 [Prexasertib] + C=CCn1c(=O)c2cnc(Nc3ccc(N4CCN(C)CC4)cc3)nc2n1-c1cccc(C(C)(C)O)n1 [AZD1775] (first compound max 1 µM, partner max 1 µM) . Output Bliss excess: -0.0519
